Recorded koff values for a group of binders are listed next.
# Tgt: T1, recombinant human PSMA (R&D, cat. no. 4234-ZN) (human, UniProt Q04609 44-750)
# T1 construct: Bought protein; also called rhPSMA; Recombinant PMSA
# Protocol notes: Octet RED384 BLI, PSMA on sensor, VH purified from periplasmic extracts
Kindly provide the numeric value in s⁻¹ only, without the unit symbol.

>  <Binder>
single VH domain antibody 13.1 (VHH, Human single VH domain antibody (Humabody); purified via the C-terminal His-tag, residues not tied) VHH: EVQLVESGGGSVQPGGSLRLSCAASGFTFSDYWMTWVRQVPGKGLEWVANIKQDGSEKYYVDSVKGRFTISRDNAKNSLYLQMNSLRAEDTAVYYCARDRGGAVALYHNGMDMGGQGTTVTVSS

>  <koff, s⁻¹>
0.0006

$$$$

Now for a further binder.
Request: I have this binder here, single VH domain antibody 10.1 (VHH, Human single VH domain antibody (Humabody); purified via the C-terminal His-tag, residues not tied) VHH: QVQLVESGGGLVQPGGSLRLSCAASGFTFSSYGMHWVRQAPGKGLEWVAFMSYDGSNKYYVDSVKGRFTISRDNSKNTLYLQMNSLRAEDTAVYYCAKGDYDFWSGYPDYDMDVWGQGTTVTVSS , and I need its recorded koff.
Result: 0.00185
